- Protocol: yeast display, Sf9 membrane polyspecificity reagent, FACS + sequencing; frameworks hold sequencing errors

# Item sequence, polyreactivity (PSR sort gate)
data = [
    ("QVQLVESGGGLVQAGGSLRLSCAASGSTFTYYTMGWYRQAPVKERELVAAISTSGGRTYDADSVKGRFTISRDYAKIPVFLQMNSLKPEDTAVYYCAAYSRTYDREFDYWGQGTQVTVSS", "high polyreactivity"),
    ("QVQLVESGGGLVQAGGSLRLSCAASGFTFVIYAMGWYRQAPGTERELVATITGSGGSTYYADSVKWRITISRDNAKNTVYLQMNSLKPEDTAVYYCAARRRYQRYSRYDYWGLGTQVTVSS", "high polyreactivity"),
    ("QVQLVESGGGLVHAGGSLRLSCAAYGSIFYSYAMGWYRQAPGKERELVAAITSVGNTNYADSVKGRFTISRDNAKNTVYLQMNSLKPEDTAVYYYWGQGTQVTVSS", "low polyreactivity"),
    ("QVQLVESGGGLVQAGGSLRLSCAASGSTFTTYVMGWYRQAPGKERELVAAISRRGGRTYYADSVKGRFTISRDNAKNTVYLQMNSLKPEDTAVYYCNKVYPTYYYYRGGPTEYDYWGQGTQVTVSS", "high polyreactivity"),
    ("QVQLVESGGGLVQAGGSLRLSCAASGSTFDVNAMGWYRQAPGKERELVAAISFSGGSTYYADSVKGRFTISRDNAKNTVYLQMNSLKPEDTAVYYCAAEEWRSYYEEYDYWGQGTQVTVSS", "low polyreactivity"),
]
